- Tgt: human ether-à-go-go-related gene (hERG) potassium channel (human, UniProt Q12809)
- Sequence (Q12809 whole entry, looked up): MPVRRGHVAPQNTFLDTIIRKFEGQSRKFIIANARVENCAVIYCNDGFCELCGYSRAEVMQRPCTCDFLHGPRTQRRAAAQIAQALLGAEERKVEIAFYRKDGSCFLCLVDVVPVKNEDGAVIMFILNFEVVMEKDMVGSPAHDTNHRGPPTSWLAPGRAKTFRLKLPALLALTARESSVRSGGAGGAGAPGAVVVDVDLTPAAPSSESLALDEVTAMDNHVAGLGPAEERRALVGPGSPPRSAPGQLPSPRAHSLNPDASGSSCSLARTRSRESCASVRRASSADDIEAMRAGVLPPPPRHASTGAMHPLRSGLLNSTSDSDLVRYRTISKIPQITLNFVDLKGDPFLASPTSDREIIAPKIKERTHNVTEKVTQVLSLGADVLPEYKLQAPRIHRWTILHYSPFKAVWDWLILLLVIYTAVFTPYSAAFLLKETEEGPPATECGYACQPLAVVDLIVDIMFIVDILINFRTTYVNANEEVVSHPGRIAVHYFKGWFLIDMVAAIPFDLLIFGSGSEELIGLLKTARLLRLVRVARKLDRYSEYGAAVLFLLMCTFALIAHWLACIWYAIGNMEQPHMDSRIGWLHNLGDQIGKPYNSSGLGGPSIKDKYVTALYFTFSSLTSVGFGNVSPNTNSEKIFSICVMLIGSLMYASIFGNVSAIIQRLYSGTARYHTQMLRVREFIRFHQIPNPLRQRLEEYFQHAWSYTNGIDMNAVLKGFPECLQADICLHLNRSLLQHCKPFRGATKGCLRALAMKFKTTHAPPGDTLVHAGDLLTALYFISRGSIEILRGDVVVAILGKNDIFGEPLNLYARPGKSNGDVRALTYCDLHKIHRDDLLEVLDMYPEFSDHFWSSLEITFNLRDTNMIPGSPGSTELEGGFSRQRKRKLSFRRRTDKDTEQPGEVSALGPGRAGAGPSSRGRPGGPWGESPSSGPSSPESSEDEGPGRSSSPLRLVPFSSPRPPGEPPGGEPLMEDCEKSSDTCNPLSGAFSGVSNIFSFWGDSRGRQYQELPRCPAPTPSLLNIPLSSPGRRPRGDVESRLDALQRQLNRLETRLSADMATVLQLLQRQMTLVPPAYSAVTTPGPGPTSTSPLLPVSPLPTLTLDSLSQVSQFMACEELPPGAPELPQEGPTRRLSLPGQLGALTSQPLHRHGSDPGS
- Assay: primary screen, population patch clamp on CHO cells stably expressing hERG; higher = less effect of the substance
Hit rate of the full screen: of about 310,000 compounds, about 2,200 (0.71%) showed an effect of 50% or more. Effects have a minus sign here. This is one part of a sample in which strong results are shown more often than they occur.
Recorded hERG current change (%, negative = inhibition) at 1uM values for a group of compounds are listed next.
Reported metric: hERG current change (%, negative = inhibition) at 1uM (%)

| Test smiles | Value measured |
| --- | --- |
| COCCCn1c(C(=O)Nc2ccc3c(c2)OCO3)cc2c(=O)n3ccccc3nc21 | 13.5 |
| O=C1NC(=O)C(CCc2ccncc2)(CCc2ccncc2)C(=O)N1CCc1ccc(F)cc1 | -77.1 |
| O=C1NC(=O)C(CCc2ccncc2)(CCc2ccncc2)C(=O)N1C1CCCCC1 | -69.7 |

---

- Tgt: human ether-à-go-go-related gene (hERG) potassium channel (human, UniProt Q12809)
- Assay: primary screen, population patch clamp on CHO cells stably expressing hERG; higher = less effect of the substance
About 2,200 (0.71%) of roughly 310,000 compounds showed an effect of 50% or more. The effect is printed as a negative number. The sample holds strong results, similar compounds and a random draw of the others, so the mix is not that of the screen.
Reported metric: hERG current change (%, negative = inhibition) at 1uM (%)

| Compound | Tgt | Value measured |
| --- | --- | --- |
| N#CCCSc1ncnc2c1oc1ccccc12 | human ether-à-go-go-related gene (hERG) potassium channel (human, UniProt Q12809) | 4.55 |
| Cc1cccn2c(=O)c3cc(C(=O)NC4CCCC4)n(C)c3nc12 | human ether-à-go-go-related gene (hERG) potassium channel (human, UniProt Q12809) | 9.12 |
| O=C(Nc1nc(-c2ccc3c(c2)OCCO3)cs1)C1CCCC1 | human ether-à-go-go-related gene (hERG) potassium channel (human, UniProt Q12809) | 8.23 |
| CCCCn1c(SCC(=O)NCc2ccco2)nc2c(sc3ccccc32)c1=O | human ether-à-go-go-related gene (hERG) potassium channel (human, UniProt Q12809) | -4.7 |
| COc1ccc(OC)c(C(O)c2nc3ccccc3n2C(C)C)c1 (centres unmarked) | human ether-à-go-go-related gene (hERG) potassium channel (human, UniProt Q12809) | 12.9 |
| Cc1cc(C)c2cc(C#N)c(SCC(=O)NCC3CCCO3)nc2c1 (centres unmarked) | human ether-à-go-go-related gene (hERG) potassium channel (human, UniProt Q12809) | -2.04 |
| COc1ccccc1/C=C/C(=O)NCC(=O)N/N=C(\CCC(=O)O)c1ccccc1 | human ether-à-go-go-related gene (hERG) potassium channel (human, UniProt Q12809) | -2.9 |
| O=C(/C=C/c1cccnc1)c1cc(F)ccc1O | human ether-à-go-go-related gene (hERG) potassium channel (human, UniProt Q12809) | 8.59 |
| Cc1ccc(CN2CCN(CC(=O)NCCCN3CCN(c4ccc(F)cc4)CC3)C2=O)cc1 | human ether-à-go-go-related gene (hERG) potassium channel (human, UniProt Q12809) | -56.6 |
| Nc1nc(CN2CCN(Cc3ccccc3)CC2)nc(Nc2ccccc2)n1 | human ether-à-go-go-related gene (hERG) potassium channel (human, UniProt Q12809) | -56.3 |
| COC(=O)c1cc(S(=O)(=O)Nc2ccc(C)c(F)c2)c[nH]1 | human ether-à-go-go-related gene (hERG) potassium channel (human, UniProt Q12809) | -3.6 |
| Cc1cccn2c(=O)c3cc(C(=O)NC4CCCC4)sc3nc12 | human ether-à-go-go-related gene (hERG) potassium channel (human, UniProt Q12809) | 2.15 |
| Cc1cccn2c(=O)c3cc(C(=O)NC4CCCC4)c(=N)n(C4CCCCC4)c3nc12 | human ether-à-go-go-related gene (hERG) potassium channel (human, UniProt Q12809) | -81.9 |
| Cc1cccn2c(=O)c3cc(C(=O)NC4CCCCCC4)sc3nc12 | human ether-à-go-go-related gene (hERG) potassium channel (human, UniProt Q12809) | 15.1 |
| Cc1cccc(CN2CCN(CC(=O)NCCCN3CCN(c4ccc(F)cc4)CC3)C2=O)c1 | human ether-à-go-go-related gene (hERG) potassium channel (human, UniProt Q12809) | -54.5 |
| NS(=O)(=O)c1cccc(NC(=O)CCCC2CCCCC2)c1 | human ether-à-go-go-related gene (hERG) potassium channel (human, UniProt Q12809) | 7.26 |
| C#CC[N+]1(CC#Cc2ccc(C)cc2)CCCCC1.[Br-] | human ether-à-go-go-related gene (hERG) potassium channel (human, UniProt Q12809) | 2.2 |
| N=C1/C(=C/c2ccc(OCc3ccccc3F)cc2)C(=O)N=C2SC(CC(=O)N3CCOCC3)=NN12 | human ether-à-go-go-related gene (hERG) potassium channel (human, UniProt Q12809) | 12.2 |
| O=C(CN1CCN(Cc2ccc(Cl)cc2)C1=O)NCCCN1CCOCC1 | human ether-à-go-go-related gene (hERG) potassium channel (human, UniProt Q12809) | 4.56 |
| O=C(OCc1ccc([N+](=O)[O-])cc1)C1CC(=O)N(c2ccccc2)C1 (centres unmarked) | human ether-à-go-go-related gene (hERG) potassium channel (human, UniProt Q12809) | -36 |
| CCn1c(SCC(=O)Nc2ccccc2)nc2nc3c(cc2c1=O)COC(C)(C)C3 | human ether-à-go-go-related gene (hERG) potassium channel (human, UniProt Q12809) | -12.4 |
| COc1ccc(S(=O)(=O)N2CCCCCC2)cc1C(=O)N(C)Cc1ccccc1F | human ether-à-go-go-related gene (hERG) potassium channel (human, UniProt Q12809) | 6.9 |
| CC(C)(C)C(=O)Nc1c(Cl)cccc1OC(F)(F)F | human ether-à-go-go-related gene (hERG) potassium channel (human, UniProt Q12809) | 12.4 |
| Nc1nc(CN2CCCCCC2)nc(Nc2ccccc2)n1 | human ether-à-go-go-related gene (hERG) potassium channel (human, UniProt Q12809) | -31.9 |
| Cc1ccc(C#N)c(SCc2cccc(Br)c2)n1 | human ether-à-go-go-related gene (hERG) potassium channel (human, UniProt Q12809) | 17.2 |
| O=C(NCc1ccc2c(c1)OCO2)c1cc(-c2ccccc2Cl)on1 | human ether-à-go-go-related gene (hERG) potassium channel (human, UniProt Q12809) | 12.4 |
| CCN(CC)S(=O)(=O)c1ccc(C(=O)Nc2c3c(nn2C(C)(C)C)CS(=O)(=O)C3)cc1 | human ether-à-go-go-related gene (hERG) potassium channel (human, UniProt Q12809) | 5.04 |
| COc1ccc(Nc2nc(N)nc(CN3CCN(c4ccc(F)cc4)CC3)n2)cc1 | human ether-à-go-go-related gene (hERG) potassium channel (human, UniProt Q12809) | -19.3 |
| Cc1cc(C)cc(N(C(=O)c2csnn2)C(C(=O)NC2CCCCC2)c2ccccn2)c1 (centres unmarked) | human ether-à-go-go-related gene (hERG) potassium channel (human, UniProt Q12809) | 11.5 |
| COc1ccc(Nc2nc(N)nc(CN3CCC(C)CC3)n2)cc1 | human ether-à-go-go-related gene (hERG) potassium channel (human, UniProt Q12809) | -50.7 |
| COc1ccc(N2CCN(CCCNC(=O)CN3CCN(Cc4ccccc4C)C3=O)CC2)cc1 | human ether-à-go-go-related gene (hERG) potassium channel (human, UniProt Q12809) | -16.7 |
| COCCCn1c(SCC(=O)NCc2ccccc2)nc2ccccc2c1=O | human ether-à-go-go-related gene (hERG) potassium channel (human, UniProt Q12809) | -8.03 |
